System: Dengue-2 (Strain New Guinea C)
Test: Viral yield assay against Dengue-2 in Vero cells
Type: cell-based, Dengue virus
Conditions: Dengue virus; Vero cells, MOI 0.1, harvested 48 hours post infection; read-out: Activity (EC50 class) against Dengue-2 Virus in Vero cells
pEC50: −log10 of the molar value.
assay-readout: pEC50

pEC50 lookup needed for `Nc1c(C(=O)N2CCCCC2)sc2nc3c(cc12)CCC3` , thanks.
< 4.60

pEC50 lookup needed for `CC(=O)c1cc2c(N)c(C(=O)NC34CC5CC(CC(C5)C3)C4)sc2nc1C` , thanks.
< 4.60

pEC50 lookup needed for `COc1ccccc1NC(=O)c1sc2nc3c(cc2c1N)CN(C)CC3` , thanks.
> 5.30

pEC50 lookup needed for `COc1ccc(NC(=O)c2sc3nc4c(cc3c2N)CCCCC4)cc1` , thanks.
< 4.60

pEC50 lookup needed for `CC(C)N1CCc2nc3sc(C(=O)Nc4cccc(F)c4)c(N)c3cc2C1` , thanks.
> 5.30

pEC50 lookup needed for `COCc1cc(C)nc2sc(C(=O)N3CCc4ccccc43)c(N)c12` , thanks.
< 4.60

pEC50 lookup needed for `CCN(CC)C(=O)c1sc2nc(-c3ccccc3)cc(C(F)(F)F)c2c1N` , thanks.
< 4.60

pEC50 lookup needed for `Nc1c(C(=O)Nc2cc(C(F)(F)F)ccc2Cl)sc2nc3c(cc12)CCCC3` , thanks.
< 4.60

pEC50 lookup needed for `CC1(C)Cc2c(c(N3CCOCC3)nc3sc4c(=O)n(-c5ccc(Cl)c(Cl)c5)cnc4c23)CO1` , thanks.
< 4.60

----------
Exercise: for every item that follows, state its recorded EC50.
Test system: Dengue-2 (Strain New Guinea C)
Experiment: Viral yield assay against Dengue-2 in Vero cells
Type: cell-based, Dengue virus
Details: Dengue virus; Vero cells, MOI 0.1, harvested 48 hours post infection; read-out: Activity (EC50 class) against Dengue-2 Virus in Vero cells

EC50 lookup needed for CN1CCc2nc3sc(C(=O)Nc4ccccc4Cl)c(N)c3cc2C1 [Compound 19] , thanks.
< 5 µM

EC50 lookup needed for Cc1ccc(-c2c3c(nc4sc(C(N)=O)c(N)c24)CCCC3)cc1 [Compound 227] , thanks.
> 25 µM

EC50 lookup needed for CCC1(C)Cc2c(c(N3CCOCC3)nc3sc4c(=O)[nH]cnc4c23)CO1 (stereo not drawn) [Compound 261] , thanks.
> 25 µM

EC50 lookup needed for NC(=O)c1sc2nccc(Nc3ccccc3)c2c1N [Compound 158] , thanks.
> 25 µM

EC50 lookup needed for CCCCNC(=O)c1sc2nc3c(cc2c1NC(C)=O)COC(C)(C)C3 [Compound 237] , thanks.
> 25 µM

EC50 lookup needed for C=CCn1cnc2c(sc3nc4c(cc32)COC(C)(C)C4)c1=O [Compound 202] , thanks.
> 25 µM

EC50 lookup needed for Cc1ccc2c(n1)sc1c(=O)[nH]c(C)nc12 [Compound 154] , thanks.
> 25 µM

EC50 lookup needed for Cc1cc(C)c(NC(=O)c2sc3nc4c(cc3c2N)C(=O)CCC4)c(C)c1 [Compound 94] , thanks.
5 to 25 µM

EC50 lookup needed for Nc1c(C(=O)Nc2nnc(-c3ccccc3)s2)sc2nc3c(cc12)CCC3 [Compound 88] , thanks.
5 to 25 µM
